Tested on: RXF 393
protocol: NCI-60 SRB growth inhibition, one-dose and five-dose
Format: cell-based
testConditions: Homo sapiens, RXF 393
measureName: GI50 (µM)
Respond numerically; units are µM and should not be typed.

recordSmiles	GI50 [µM]
CC(=O)Nc1ccc(/C=C/C(=O)c2cccc(NCc3ccc(NC(C)=O)cc3)c2)cc1	11.3
CC(=O)Nc1ccc(/C=C/C(=O)c2cccc(NCc3ccc(C)cc3)c2)cc1	10.9

INPUT: Test system RXF 393; read-out GI50; what value for `O=C(/C=C/c1cccnc1)c1cccc(NCc2ccc(CO)cc2)c1` ?
OUTPUT: 13.7

INPUT: Ok, now `COc1ccc(CNc2cccc(C(=O)/C=C/c3ccc(NC(C)=O)cc3)c2)cc1OC`
OUTPUT: 1.87

INPUT: Ok, now `CC(=O)Nc1ccc(/C=C/C(=O)c2cccc(NCc3csc4ccccc34)c2)cc1`
OUTPUT: 10

INPUT: Ok, now `Cc1ccc(CNc2cccc(C(=O)/C=C/c3cccnc3)c2)cc1`
OUTPUT: 12.3

INPUT: Ok, now `CC(=O)Nc1ccc(/C=C/C(=O)c2cccc(NCc3ccc(CO)cc3)c2)cc1`
OUTPUT: 11.8

INPUT: Ok, now `CC(=O)Nc1ccc(CNc2cccc(C(=O)/C=C/c3cccnc3)c2)cc1`
OUTPUT: 3.09

INPUT: Ok, now `O=C(/C=C/c1cccnc1)c1cccc(NCc2csc3ccccc23)c1`
OUTPUT: 4.67

INPUT: Ok, now `COc1ccc(CNc2cccc(C(=O)/C=C/c3cccnc3)c2)cc1OC`
OUTPUT: 10.8

---

Tested on: HOP-92
protocol: NCI-60 SRB growth inhibition, one-dose and five-dose
Assay type: cell-based
testConditions: Homo sapiens, HOP-92, read-out: percent growth inhibition
measureName: inhibition at 10 µM (%)
Respond numerically; units are % and should not be typed.

Worked cases, inhibition at 10 µM given:
compound	quantitativeReadout
CC(=O)Nc1ccc(/C=C/C(=O)c2cccc(NCc3ccc4oc(=O)ccc4c3)c2)cc1 [Compound 5k]	3.27
Cc1ccc(CNc2cccc(C(=O)/C=C/c3cccnc3)c2)cc1 [Compound 5a]	41.8
CC(=O)Nc1ccc(CNc2cccc(C(=O)/C=C/c3cccnc3)c2)cc1 [Compound 5b]	68.5
O=C(/C=C/c1cccnc1)c1cccc(NCc2ccc(CO)cc2)c1 [Compound 5e]	23.3

Lab note: next compound to report on.
INPUT: Test system HOP-92; read-out inhibition at 10 µM; what value for CC(=O)Nc1ccc(/C=C/C(=O)c2cccc(NCc3ccc(C)cc3)c2)cc1 [Compound 5f] ?
OUTPUT: 8.52

---

System: SR
protocol: NCI-60 SRB growth inhibition, one-dose and five-dose
Type: cell-based
testConditions: Homo sapiens
Reported values of GI50 for individual entries
Mention the unit after the number when you answer.

recordSmiles	tgt	GI50
CC(=O)Nc1ccc(/C=C/C(=O)c2cccc(NCc3csc4ccccc34)c2)cc1	SR	2790 nM
O=C(/C=C/c1cccnc1)c1cccc(NCc2ccc(CO)cc2)c1	SR	2620 nM
CC(=O)Nc1ccc(/C=C/C(=O)c2cccc(NCc3ccc(C)cc3)c2)cc1	SR	1510 nM
CC(=O)Nc1ccc(/C=C/C(=O)c2cccc(NCc3ccc(NC(C)=O)cc3)c2)cc1	SR	2430 nM
COc1ccc(CNc2cccc(C(=O)/C=C/c3cccnc3)c2)cc1OC	SR	2480 nM
COc1ccc(CNc2cccc(C(=O)/C=C/c3ccc(NC(C)=O)cc3)c2)cc1OC	SR	1930 nM

INPUT: Test system SR; read-out GI50; what value for `CC(=O)Nc1ccc(CNc2cccc(C(=O)/C=C/c3cccnc3)c2)cc1` ?
OUTPUT: 2010 nM

INPUT: Ok, now `CC(=O)Nc1ccc(/C=C/C(=O)c2cccc(NCc3ccc(CO)cc3)c2)cc1`
OUTPUT: 2610 nM

INPUT: Ok, now `Cc1ccc(CNc2cccc(C(=O)/C=C/c3cccnc3)c2)cc1`
OUTPUT: 2820 nM

INPUT: Ok, now `O=C(/C=C/c1cccnc1)c1cccc(NCc2csc3ccccc23)c1`
OUTPUT: 2510 nM
